Assay: Metabolic stability in dog liver microsome assessed as intrinsic clearance at 1 uM measured upto 60 mins in presence of NADPH by LC-MS/MS analysis
Format: ADME, Canis lupus familiaris
Conditions: liver microsomes, read-out: CLH
recorded_metric: microsomal CLint at 1 µM (µL/min/mg)
The figure you give is taken to be in µL/min/mg; do not add the unit.

IN: Returns the measured microsomal CLint at 1 µM for the input compound. Input: "CC(C)(N)C(=O)N[C@H](COCc1ccccc1)C(=O)N1CCC2=NN(C3CC3)C(=O)[C@]2(Cc2ccccc2)C1"
OUT: 134

====

Test: Metabolic stability in human liver microsome assessed as hepatic clearance at 1 uM measured upto 60 mins in presence of NADPH by LC-MS/MS analysis
Format: ADME
Settings: liver microsomes, read-out: CLH
recorded_metric: CLint scaled at 1 µM (mL/min/kg)
The figure you give is taken to be in mL/min/kg; do not add the unit.

IN: Returns the measured CLint scaled at 1 µM for the input molecule. Input: "CC(C)(N)C(=O)N[C@H](COCc1ccccc1)C(=O)N1CCC2=NN(C3CC3)C(=O)[C@]2(Cc2ccccc2)C1"
OUT: 127

====

Assay: Half life in male dog at 2 mg/kg, po administered as single dose measured after 4 hrs
Assay type: ADME, organism-based, Canis lupus familiaris
Settings: in vivo
recorded_metric: half-life (h)
The figure you give is taken to be in h; do not add the unit.

IN: Returns the measured half-life for the input compound. Input: "CC(C)(N)C(=O)N[C@H](COCc1ccccc1)C(=O)N1CCC2=NN(C3CC3)C(=O)[C@]2(Cc2ccccc2)C1"
OUT: 1.19

====

Assay: Volume of distribution in male mouse at 1 mg/kg, iv administered as single dose measured after 4 hrs
Assay type: ADME, organism-based
Conditions: in vivo
recorded_metric: Vd (L/kg)
The figure you give is taken to be in L/kg; do not add the unit.

IN: Returns the measured Vd for the input compound. Input: "CC(C)(N)C(=O)N[C@H](COCc1ccccc1)C(=O)N1CCC2=NN(C3CC3)C(=O)[C@]2(Cc2ccccc2)C1"
OUT: 2.94

====

Assay: Metabolic stability in rat liver microsome assessed as hepatic clearance at 1 uM measured upto 60 mins in presence of NADPH by LC-MS/MS analysis
Type: ADME
Settings: liver microsomes, read-out: CLH
recorded_metric: CLint scaled at 1 µM

IN: Returns the measured CLint scaled at 1 µM for the input compound. Input: "CC(C)(N)C(=O)N[C@H](COCc1ccccc1)C(=O)N1CCC2=NN(C3CC3)C(=O)[C@]2(Cc2ccccc2)C1"
OUT: 342 mL/min/kg

====

Consider the following compounds; for each one, report its Vd.
Assay: Volume of distribution in male Sprague-Dawley rat at 1 mg/kg, iv administered as single dose measured after 4 hrs
Assay type: ADME, organism-based
Settings: in vivo
The figure you give is taken to be in L/kg; do not add the unit.

IN: Returns the measured Vd for the input compound. Input: "CC(C)(N)C(=O)N[C@H](COCc1ccccc1)C(=O)N1CCC2=NN(C3CC3)C(=O)[C@]2(Cc2ccccn2)C1"
OUT: 3.3

IN: Let us now turn to "CC(C)(N)C(=O)N[C@H](COCc1ccccc1)C(=O)N1CCC2=NN(C3CC3)C(=O)[C@]2(Cc2ccccc2)C1"
OUT: 2.65

IN: Let us now turn to "CC(C)(N)C(=O)N[C@H](COCc1ccccc1)C(=O)N1CCC2=NN(C3CCC3)C(=O)[C@]2(Cc2ccccc2)C1"
OUT: 3.5

IN: Let us now turn to "CC(C)(N)C(=O)N[C@H](COCc1ccccc1)C(=O)N1CCC2=NOC(=O)[C@]2(Cc2ccccc2)C1"
OUT: 22.8

IN: Let us now turn to "CC(C)(N)C(=O)N[C@H](COCc1ccccc1)C(=O)N1CCC2=NN(C(F)(F)F)C(=O)[C@]2(Cc2ccccc2)C1"
OUT: 16.1
